# protocolDescription: APR_HepG2_MitoMass_24hr: Apredica 24-hour HepG2 Assay for Mitochondrial Mass (AID 2282912)
# details: high-content imaging, actives raise or lower the signal
The source made the active and inactive calls. How the source made its calls: active means hit-call score of the fitted dose curve at least 0.9, where 1 is the maximum; inactive means score below 0.9.
Possible outcomes: active, inactive

| smilesData | labelClass |
| --- | --- |
| Cc1cc(C)cc(C)c1 | inactive |
| Oc1c(Cl)cc(Cl)cc1Cl | inactive |
| Clc1cccc(Cl)c1Cl | inactive |
| Clc1cccc(Cl)c1 | inactive |
| O=C(N[C@H]1CN2CCC1CC2)c1ccc2c(c1)OCCO2 | inactive |
| CN(C)C(=S)S | inactive |
| CCCCCCCCCCCCc1cccc(S(=O)(=O)O)c1 | inactive |
| Oc1cc(Cl)c(Cl)cc1Cl | active |
| OCCN(CCO)CCO | inactive |
| N#Cc1cccnc1 | inactive |
| CC(C)O.CC(C)O.OCCN(CCO)CCO.OCCN(CCO)CCO.[Ti] | inactive |

---

# protocolDescription: BSK_hDFCGF_SRB: Viability Assessment in the BioMAP Diversity Plus: hDFCGF Assay (AID 2283061);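 further: cells exposed to compound for 24 h before the read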
# details: primary human foreskin fibroblasts
Calls of active or inactive are those of the source. Rule for the calls: active = hit-call score of the fitted dose curve at least 0.9, where 1 is the maximum; inactive = score below 0.9.

| compound | AC50 |
| --- | --- |
| Cc1c([N+](=O)[O-])c(C)c([N+](=O)[O-])c(C(C)(C)C)c1[N+](=O)[O-] | inactive |
| OC(Cc1ccccc1Cl)(Cn1cncn1)C1(Cl)CC1 (stereo not drawn) | inactive |
| Cc1ccccc1OP(=O)(Oc1ccccc1)Oc1ccccc1 | 29.2 µM (active) |
| O=[N+]([O-])c1cccc2ccccc12 | inactive |
| Cc1cc(Cl)ccc1N | inactive |
| NC(=O)CCl | inactive |
| Cc1cc(C(C)(C)c2ccc(O)c(C)c2)ccc1O | 16.1 µM (active) |
| Cc1ccc(OP(=O)(Oc2ccc(C)cc2C)Oc2ccc(C)cc2C)c(C)c1 | 4.22 µM (active) |
| C#CCOC(=O)/C=C(C)/C=C/CC(C)CCCC(C)C (stereo not drawn) | inactive |
| N#CCCC(Br)(C#N)CBr (stereo not drawn) | 7.68 µM (active) |
| CCCCN(CCCC)C(=S)[S-].CCCCN(CCCC)C(=S)[S-].[Ni+2] | inactive |
| Nc1c(Oc2ccccc2)cc(O)c2c1C(=O)c1ccccc1C2=O | inactive |
| c1ccc2sc(SNC3CCCCC3)nc2c1 | inactive |

---

# Read-out: Cytochrome P450 (CYP2B6), CYP2B6 (gene 1555)
# protocolDescription: LTEA_HepaRG_CYP2B6: Life Technologies and Expression Analysis (LTEA) Assay for Cytochrome P450 (CYP2B6) using HepaRG (AID 2283481)
# details: mRNA level, 48 h; actives raise or lower the signal
The source made the active and inactive calls. How the source made its calls: active means hit-call score of the fitted dose curve at least 0.9, where 1 is the maximum; inactive means score below 0.9.
Possible outcomes: active, inactive

| smilesData | labelClass |
| --- | --- |
| Clc1cccc(Cl)c1Cl | inactive |
| COc1ccccc1N | active |
| Cc1cc(C)cc(C)c1 | inactive |
| OCCN(CCO)CCO | active |

---

# protocolDescription: BSK_4H_SRB: Viability Assessment in the BioMAP Diversity Plus: 4H Assay (AID 2283027);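 further: cells exposed to compound for 24 h before staining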
# details: primary human endothelial cells (HUVEC)
Activity calls are given as the source filed them. The calls were made as follows: active = hit-call score of the fitted dose curve at least 0.9, where 1 is the maximum; inactive = score below 0.9.
Possible outcomes: active, inactive

| molecule | labelClass |
| --- | --- |
| OC(Cc1ccccc1Cl)(Cn1cncn1)C1(Cl)CC1 (centres undefined) | inactive |
| CC(C)(COCC1CO1)COCC1CO1 (centres undefined) | inactive |
| Cc1ccccc1OP(=O)(Oc1ccccc1)Oc1ccccc1 | active |
| O=C(O)C1(c2ccc3c(c2)OC[C@H](Cc2ccc(-c4ccccc4)cc2)[C@H]3O)CCCC1 | active |
| Cc1cc(C(C)(C)c2ccc(O)c(C)c2)ccc1O | active |
| Nc1c(Oc2ccccc2)cc(O)c2c1C(=O)c1ccccc1C2=O | inactive |
| Cc1ccccc1OP(=O)(Oc1ccccc1C)Oc1ccccc1C | active |
| Clc1cccc(Cl)c1Cl | inactive |
| CCOC(=O)C(SP(=S)(OC)OC)c1ccccc1 (centres undefined) | active |
| CCN(CC)C(=O)C(Cl)=C(C)OP(=O)(OC)OC | inactive |
| O=c1oc2ccccc2c(O)c1C(CC(O)c1ccc(-c2ccc(Br)cc2)cc1)c1ccccc1 (centres undefined) | active |
| Oc1c(Br)cc(Br)cc1Br | active |
| Cc1cc(Cl)ccc1N | inactive |
| Nc1ccc(N)cc1 | inactive |
| O=C(CCl)NCO | inactive |
| N#CCCC(Br)(C#N)CBr (centres undefined) | active |
| CC(C)(C)c1cc([N+](=O)[O-])cc(C(C)(C)C)c1O | active |
| O=C(O)COc1cc(Cl)c(Cl)cc1Cl | inactive |
| NC(=O)CCl | inactive |
| CCOC(=O)CC(=O)CCl | inactive |
| OC(Cc1ccccc1Cl)(Cn1[nH]cnc1=S)C1(Cl)CC1 (centres undefined) | active |
| O=C(N[C@H]1CN2CCC1CC2)c1ccc2c(c1)OCCO2 | inactive |
| CN(C)C(=S)S | inactive |
| N#Cc1cccnc1 | inactive |
| CCOP(=S)(OCC)OP(=S)(OCC)OCC | active |
| Cc1ccc(OP(=O)(Oc2ccc(C)cc2C)Oc2ccc(C)cc2C)c(C)c1 | inactive |
| CC(C=O)Cc1ccc2c(c1)OCO2 (centres undefined) | inactive |
| OCCCCO | inactive |
| O=C1C=CC(=O)c2ccccc21 | active |

---

# Read-out: Tumor necrosis factor receptor 1 (TNFRSF1A), TNFRSF1A (gene 7132)
# protocolDescription: LTEA_HepaRG_TNFRSF1A: Life Technologies and Expression Analysis (LTEA) Assay for Tumor necrosis factor receptor 1 (TNFRSF1A) using HepaRG (AID 2283535)
# details: mRNA level, 48 h; actives raise or lower the signal
The source made the active and inactive calls. How the source made its calls: active means hit-call score of the fitted dose curve at least 0.9, where 1 is the maximum; inactive means score below 0.9.

| smilesData | outcome |
| --- | --- |
| Cc1cc(C)cc(C)c1 | inactive |
| N#Cc1cccnc1 | inactive |
| O=C(O)C1(c2ccc3c(c2)OC[C@H](Cc2ccc(-c4ccccc4)cc2)[C@H]3O)CCCC1 | inactive |
| COc1ccccc1N | inactive |
| Clc1cccc(Cl)c1 | inactive |
| CN(C)C(=S)S | inactive |
| O=C(N[C@H]1CN2CCC1CC2)c1ccc2c(c1)OCCO2 | inactive |
| CC(C)(C)c1ccccc1O | inactive |
| CCCCCCCCCCCCc1cccc(S(=O)(=O)O)c1 | inactive |
| Oc1cc(Cl)c(Cl)cc1Cl | inactive |
| Oc1c(Cl)cc(Cl)cc1Cl | inactive |

---

# testTarget: Signal transducer and activator of transcription 3 (Homo sapiens)
# protocolDescription: ATG_STAT3_CIS: Attagene CIS-FACTORIAL HepG2 Assay for human Signal Transducer and Activator of Transcription 3 (STAT3) (AID 2282963)
# details: HepG2, Attagene cis-factorial STAT3 reporter transcription; actives raise or lower the signal
Activity calls are given as the source filed them. Rule for the calls: active = hit-call score of the fitted dose curve at least 0.9, where 1 is the maximum; inactive = score below 0.9.

| compound | testTarget | outcome |
| --- | --- | --- |
| CN(C)[C@@H]1C(=O)C(C(N)=O)=C(O)[C@@]2(O)C(=O)C3=C(O)c4c(O)ccc(Cl)c4[C@@](C)(O)[C@H]3C[C@@H]12 | Signal transducer and activator of transcription 3 (Homo sapiens) | inactive |
| BrCC(Br)c1ccccc1 (centres undefined) | Signal transducer and activator of transcription 3 (Homo sapiens) | inactive |
| COCC(=O)N(c1c(C)cccc1C)[C@H](C)C(=O)OC | Signal transducer and activator of transcription 3 (Homo sapiens) | inactive |
| O=C(Cc1ccccc1)OCCc1ccccc1 | Signal transducer and activator of transcription 3 (Homo sapiens) | inactive |
| CN(C1CCCCC1)C1CCCCC1 | Signal transducer and activator of transcription 3 (Homo sapiens) | inactive |
| C=CC(=O)NC(C)(C)CC(C)=O | Signal transducer and activator of transcription 3 (Homo sapiens) | inactive |
| O=S(=O)(F)C(F)(F)C(F)(F)C(F)(F)C(F)(F)F | Signal transducer and activator of transcription 3 (Homo sapiens) | inactive |
| O=C(NC(=O)c1c(F)cccc1F)Nc1cc(Cl)c(F)c(Cl)c1F | Signal transducer and activator of transcription 3 (Homo sapiens) | inactive |
| O=c1[nH]c(=O)n(Cl)c(=O)n1Cl | Signal transducer and activator of transcription 3 (Homo sapiens) | inactive |
| Cc1ccc2nc3sc(=O)sc3nc2c1 | Signal transducer and activator of transcription 3 (Homo sapiens) | inactive |
| O=c1oc2ccccc2c(O)c1C(CC(O)c1ccc(-c2ccc(Br)cc2)cc1)c1ccccc1 (centres undefined) | Signal transducer and activator of transcription 3 (Homo sapiens) | inactive |
| Oc1cccc(-c2ccccc2)c1 | Signal transducer and activator of transcription 3 (Homo sapiens) | inactive |
| O=c1nc(O)n(Cl)c(=O)n1Cl | Signal transducer and activator of transcription 3 (Homo sapiens) | inactive |
| OCCN(CCO)CCO | Signal transducer and activator of transcription 3 (Homo sapiens) | inactive |
| Oc1ccc(Cc2ccc(O)cc2)cc1 | Signal transducer and activator of transcription 3 (Homo sapiens) | inactive |
| CC(C)[C@@H](Nc1ccc(C(F)(F)F)cc1Cl)C(=O)OC(C#N)c1cccc(Oc2ccccc2)c1 (some centres undefined) | Signal transducer and activator of transcription 3 (Homo sapiens) | inactive |
| Clc1cc(C(Cl)(Cl)Cl)cnc1Cl | Signal transducer and activator of transcription 3 (Homo sapiens) | inactive |
| OC(Cc1ccccc1Cl)(Cn1[nH]cnc1=S)C1(Cl)CC1 (centres undefined) | Signal transducer and activator of transcription 3 (Homo sapiens) | inactive |
| OCCCCO | Signal transducer and activator of transcription 3 (Homo sapiens) | inactive |
